# target.desc: S1P1 (Homo sapiens (Human))
# Sequence (P21453 whole entry, species assumed): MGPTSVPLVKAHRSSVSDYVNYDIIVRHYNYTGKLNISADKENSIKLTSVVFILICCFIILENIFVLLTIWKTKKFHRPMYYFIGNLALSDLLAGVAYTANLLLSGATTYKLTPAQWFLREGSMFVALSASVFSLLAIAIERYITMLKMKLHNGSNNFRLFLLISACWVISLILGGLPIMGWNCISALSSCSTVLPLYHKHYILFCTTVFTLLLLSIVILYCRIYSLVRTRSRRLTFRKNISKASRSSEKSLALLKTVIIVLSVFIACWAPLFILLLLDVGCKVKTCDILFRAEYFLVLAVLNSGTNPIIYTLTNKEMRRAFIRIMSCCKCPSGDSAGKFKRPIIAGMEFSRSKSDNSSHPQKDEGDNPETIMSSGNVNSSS
# method: 35S-GTPγS binding assay, S1P1 membranes
# Assay type: biochemical
# condition.label: membranes from CHO cells expressing S1P1; read-out: S1P1 GTPyS EC50
reported.property: pEC50
Quick note: pEC50 values are minus log10 of concentrations in mol/L.

Task: Provide one value: measured pEC50 of CCCN(c1cc(C(=O)Nc2ccc(S(N)(=O)=O)cc2C)ncn1)C(C)C [Example 1-60]
Result: 7.29

Task: Supply recorded pEC50 for CS(=O)(=O)c1ccc(NC(=O)c2cc(N(CC3CC3)C3CCCCC3)ncn2)cc1 [Example 1-112] here.
Result: 6.71

Task: State its pEC50: CCCN(CC1CC1)c1cc(C(=O)Nc2ccc(S(C)(=O)=O)cc2)ncn1 [Example 1-110]
Result: 5.63

Task: Identify pEC50 associated with the compound CCCN(c1cc(C(=O)Nc2ccc(S(N)(=O)=O)cc2C)ncn1)C1CCCCC1 [Example 1-54]
Result: 8.54

Task: Find the measured pEC50 of CCCN(c1cc(C(=O)Nc2ccc3[nH]ncc3c2)ncn1)C(C)C [Example 1-67] and report it.
Result: 7.17

Task: Please look at this compound and report its pEC50: COCCN(c1cc(C(=O)Nc2ccc3[nH]ncc3c2)ncn1)C(C)C [Example 1-87]
Result: 6.67

Task: Quote pEC50 reported for CCCN(CC1CC1)c1cc(C(=O)Nc2ccc(CN3CCCC(CO)C3)cc2C)ncn1 (centres unmarked) [Example 1-141] please.
Result: 5.64

Task: State its pEC50: CCCN(CC1CC1)c1cc(C(=O)Nc2ccc(CN3CCCC3=O)cc2C)ncn1 [Example 1-98]
Result: 6.15
